- System: SW480
- methodSummary: Cytotoxicity against human SW480 cells assessed as reduction in cell viability incubated for 72 hrs by SRB assay
- testConditions: SW480, 72 h
metric: IC50 (µM)
Give bare numbers, in µM.

Task item: # returns recorded IC50 (system: SW480) for C=C1C(=O)O[C@@H]2CCCn3cccc3[C@@H]12
Reply: 16.8

Value source: ChEMBL document CHEMBL4680309
